Provenance of the data: patent US7728107B2

Catalogue of compounds with associated Ki
target: human 5-HT2B receptor (Homo sapiens); construct: expressed in transfected cells; assay: biochemical; format: binding
Sequence (P41595 whole entry): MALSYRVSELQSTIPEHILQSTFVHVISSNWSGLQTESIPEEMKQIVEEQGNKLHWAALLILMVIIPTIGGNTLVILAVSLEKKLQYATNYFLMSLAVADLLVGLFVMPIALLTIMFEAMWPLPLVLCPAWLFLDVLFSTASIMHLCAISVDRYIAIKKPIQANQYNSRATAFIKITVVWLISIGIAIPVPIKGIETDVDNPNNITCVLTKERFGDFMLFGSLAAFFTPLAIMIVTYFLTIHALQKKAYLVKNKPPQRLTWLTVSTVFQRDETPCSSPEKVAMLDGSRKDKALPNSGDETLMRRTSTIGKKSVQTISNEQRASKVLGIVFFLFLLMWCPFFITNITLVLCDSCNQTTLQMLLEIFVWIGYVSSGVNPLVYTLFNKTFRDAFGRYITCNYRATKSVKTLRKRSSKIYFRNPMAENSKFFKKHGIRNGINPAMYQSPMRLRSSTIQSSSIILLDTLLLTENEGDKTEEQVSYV
assay-metric: Ki (nM)

compound: Cc1nc2sccn2c(=O)c1CCN1CCC(=C(c2ccc(F)cc2)c2ccc(F)cc2)CC1
assay-metric: Ki
reported-value: 4.57
--
compound: COc1cc(CC(C)N)c(OC)cc1I (stereo not shown)
assay-metric: Ki
reported-value: 15.1
--
compound: CN1C[C@@H](NS(=O)(=O)N(C)C)C[C@@H]2c3cccc4c3c(cn4C)C[C@H]21
assay-metric: Ki
reported-value: 8.71
--
compound: NCCc1c[nH]c2ccc(C(N)=O)cc12
assay-metric: Ki
reported-value: 61.7
